Experimental Target: PKA (Bos taurus)
Construct: purchased Promega
Assay Protocol: In vitro PKA kinase activity assay (kemptide / SPA beads);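 note: Cell-free assay of purified PKA catalytic subunit phosphorylating the 7-mer kemptide substrate, run in MOPS buffer with magnesium acetate and BSA, with blank wells lacking enzyme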
Format: biochemical
Settings: 1 μM compound concentration, Assay 2
Where no end group is shown, it is not given here. Side-chain parts run from the residue outwards. [ ]: non-standard residue; d: D form. The star is where a group is joined. X1 = 5‑aminoethylsulfonamide isoquinoline, O=S(=O)(NCCN*)c1cccc2cnccc12; hLeu = CC(C)CC[C@H](N)C(=O)O; Nle = CCCC[C@H](N)C(=O)O; Orn = NCCC[C@H](N)C(=O)O; Dab = NCC[C@H](N)C(=O)O; Abu = CC[C@H](N)C(=O)O; Dap = NC[C@H](N)C(=O)O
Recorded Metric: PKA-kinase Assay 2, % inhibition of kinase activity (%)
One number for each entry, in %.

Use the examples below as a reference point.
Substance	Value Unit	Result Value
60020-50: Arg-Pro-Arg-Abu-Glu(Gly-5-aminoethylsulfonamide isoquinoline)-Dab-Hol (RPR[Abu]E([Gly-X1])[Dab][hLeu])	%	97
60020-37: Arg-Pro-Arg-Dap-Glu(Gly-5-aminoethylsulfonamide isoquinoline)-Ala-Phe (RPR[Dap]E([Gly-X1])AF)	%	99
60020-44: Arg-Pro-Arg-Orn-Glu(Gly-5-aminoethylsulfonamide isoquinoline)-Orn-Hol (RPR[Orn]E([Gly-X1])[Orn][hLeu])	%	95
60020-60: Arg-Pro-Arg-Nle-Glu(Gly-5-aminoethylsulfonamide isoquinoline)-Orn-Hol (RPR[Nle]E([Gly-X1])[Orn][hLeu])	%	89
60020-34: Arg-Pro-Arg-Dap-Glu(Gly-5-aminoethylsulfonamide isoquinoline)-Dab-Hol (RPR[Dap]E([Gly-X1])[Dab][hLeu])	%	98

Working through the 6 substances below one at a time, give PKA-kinase Assay 2, % inhibition of kinase activity for each.
1. 60020-11: Arg-Pro-Arg-Orn-Glu(5-aminoethylsulfonamide isoquinoline)-Orn-Phe (RPR[Orn]E(X1)[Orn]F)
2. 60020-43: Arg-Pro-Arg-Orn-Glu(Gly-5-aminoethylsulfonamide isoquinoline)-Orn-Phe (RPR[Orn]E([Gly-X1])[Orn]F)
3. 60020-51: Arg-Pro-Arg-Abu-Glu(Gly-5-aminoethylsulfonamide isoquinoline)-Orn-Phe (RPR[Abu]E([Gly-X1])[Orn]F)
4. 60020-3: Arg-Pro-Arg-Dap-Glu(5-aminoethylsulfonamide isoquinoline)-Orn-Phe (RPR[Dap]E(X1)[Orn]F)
5. 60020-1: Arg-Pro-Arg-Dap-Glu(5-aminoethylsulfonamide isoquinoline)-Dab-Phe (RPR[Dap]E(X1)[Dab]F)
6. 60020-33: Arg-Pro-Arg-Dap-Glu(Gly-5-aminoethylsulfonamide isoquinoline)-Dab-Phe (RPR[Dap]E([Gly-X1])[Dab]F)

(A)
96
96
95
96
99
98

For each of the substances below, state PKA-kinase Assay 2, % inhibition of kinase activity.
1. 60020-52: Arg-Pro-Arg-Abu-Glu(Gly-5-aminoethylsulfonamide isoquinoline)-Orn-Hol (RPR[Abu]E([Gly-X1])[Orn][hLeu])
2. 60020-10: Arg-Pro-Arg-Orn-Glu(5-aminoethylsulfonamide isoquinoline)-Dab-Hol (RPR[Orn]E(X1)[Dab][hLeu])
3. 60020-9: Arg-Pro-Arg-Orn-Glu(5-aminoethylsulfonamide isoquinoline)-Dab-Phe (RPR[Orn]E(X1)[Dab]F)
4. 60020-38: Arg-Pro-Arg-Dap-Glu(Gly-5-aminoethylsulfonamide isoquinoline)-Ala-Hol (RPR[Dap]E([Gly-X1])A[hLeu])
5. 60020-49: Arg-Pro-Arg-Abu-Glu(Gly-5-aminoethylsulfonamide isoquinoline)-Dab-Phe (RPR[Abu]E([Gly-X1])[Dab]F)
6. 60020-2: Arg-Pro-Arg-Dap-Glu(5-aminoethylsulfonamide isoquinoline)-Dab-Hol (RPR[Dap]E(X1)[Dab][hLeu])

(A)
92
94
97
99
95
95

Hey, quick one: what's PKA-kinase Assay 2, % inhibition of kinase activity for each of these?
1. 60020-35: Arg-Pro-Arg-Dap-Glu(Gly-5-aminoethylsulfonamide isoquinoline)-Orn-Phe (RPR[Dap]E([Gly-X1])[Orn]F; not fully specified)
2. 60020-36: Arg-Pro-Arg-Dap-Glu(Gly-5-aminoethylsulfonamide isoquinoline)-Orn-Hol (RPR[Dap]E([Gly-X1])[Orn][hLeu])

(A)
[96, 94]
